Task for the reader: assign each of the following molecules its reported POTASSIUM.
# Species: Rattus norvegicus
# protocol-text: DrugMatrix - Regimen: Daily Repeat
# Assay type: toxicity, organism-based, Sprague-Dawley
# Design: regimen Daily Repeat, gender Male, age 6-8 weeks
# test-parameters: in vivo, po, 0 mg/kg, 72 h, tissue Plasma, route oral GAVAGE, dose level Control, time 3 day, vehicle 100 % WATER
One number for each entry, in MEQ/L.

CCC1(c2ccccc2)C(=O)NC(=O)NC1=O: 6.34
Cc1cc(C(C)(C)C)c(O)c(C)c1CC1=NCCN1: 5.91
NN [HYDRAZINE]: 5.95
C1CCN2C[C@@H]3C[C@@H](CN4CCCC[C@@H]34)[C@H]2C1: 5.99

Continue with the next molecule.
Lookup: What value of measured POTASSIUM is listed for CN1C(=O)OC(C)(C)C1=O ?
Found: 7.03

====

# Species on record: Rattus norvegicus
# protocol-text: DrugMatrix - Regimen: Daily Repeat
# Assay type: toxicity, organism-based, Sprague-Dawley
# Design: regimen Daily Repeat, gender Male, age 6-8 weeks
# test-parameters: in vivo, po, 0 mg/kg, 72 h, tissue Blood, route oral GAVAGE, dose level Control, time 3 day, vehicle 100 % WATER
endpoint: ABSOLUTE MONOCYTE (CELLS/uL)
Answers are plain numbers, in CELLS/uL.

Worked examples, 2 compounds total:
C1CCN2C[C@@H]3C[C@@H](CN4CCCC[C@@H]34)[C@H]2C1 [SPARTEINE]: 166.67
NN [HYDRAZINE]: 166

Lookup: What value of measured ABSOLUTE MONOCYTE is listed for C[N+](C)(C)CCOC(N)=O.[Cl-] [CARBACHOL] ?
Found: 63.83

====

# Organism: Rattus norvegicus
# protocol-text: DrugMatrix - Regimen: Daily Repeat
# Format: toxicity, organism-based, Sprague-Dawley
# Design: regimen Daily Repeat, gender Male, age 6-8 weeks
# test-parameters: in vivo, po, 0 mg/kg, 72 h, tissue Plasma, route oral GAVAGE, dose level Control, time 3 day, vehicle .5 % CMC
Task for the reader: assign each of the following molecules its reported LIPASE.
Give bare numbers, in u/L.

Worked examples, 2 molecules total:
Cl.NC[C@H]1CC[C@H](C(=O)Oc2ccc(CCC(=O)O)cc2)CC1 [CETRAXATE HYDROCHLORIDE]: 9.8
COc1cc(/C=C/C(=O)O)ccc1O [FERULATE]: 9.8

Continue with the next molecule.
Lookup: What value of measured LIPASE is listed for NC(=O)CN1CCCC1=O ?
Found: 10

====

# Species: Rattus norvegicus
# protocol-text: DrugMatrix - Regimen: Daily Repeat
# Assay type: toxicity, organism-based, Sprague-Dawley
# Parameters: regimen Daily Repeat, gender Male, age 6-8 weeks
# test-parameters: in vivo, po, 0 mg/kg, 72 h, tissue Blood, route oral GAVAGE, dose level Control, time 3 day, […]
endpoint: PLATELET COUNT (x10E3/uL)
One number for each entry, in x10E3/uL.

Worked examples, 2 compounds total:
O=C(O)COC(=O)Cc1ccccc1Nc1c(Cl)cccc1Cl [ACECLOFENAC]: 989
COC(=O)Nc1nc2ccc(C(=O)c3ccccc3)cc2[nH]1 [MEBENDAZOLE]: 989

Continue with the next compound.
Lookup: What value of measured PLATELET COUNT is listed for COc1ccccc1OCCNCC(O)COc1cccc2[nH]c3ccccc3c12 (stereo not drawn) [CARVEDILOL] ?
Found: 989
